B1: Pistol ribozyme (parent)
chain: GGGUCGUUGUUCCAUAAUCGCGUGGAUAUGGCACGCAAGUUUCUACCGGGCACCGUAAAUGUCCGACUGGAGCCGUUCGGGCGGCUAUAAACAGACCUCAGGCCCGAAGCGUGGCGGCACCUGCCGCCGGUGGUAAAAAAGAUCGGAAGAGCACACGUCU

variants of: B1; experiment: aptazyme ON/OFF ratio, guanine; higher = stronger switching; co-transcriptional cleavage with and without guanine
aptazyme ON/OFF ratio values by entry
The answer should be written as a number, with no unit following it.

Solved cases (5 shown):
{"variant.spec": "U7A G9U U10C U11G C12U", "aptazyme ON/OFF ratio": 1.34}
{"variant.spec": "U7A U8C G9U U10C U11C C12G C13G", "aptazyme ON/OFF ratio": 1.22}
{"variant.spec": "U7A U8C G9C U10A U11C C13G", "aptazyme ON/OFF ratio": 1.46}
{"variant.spec": "U8C G9A U11G C12U C13A", "aptazyme ON/OFF ratio": 1.34}
{"variant.spec": "U7G G9A C12G C13G", "aptazyme ON/OFF ratio": 1.1}

Q. Need aptazyme ON/OFF ratio, item U7C U8G G9U U11A C12U C13G
A. 1.24
